- test system: ghrelin receptor overexpressed on HEK293 cells (UniProt Q92847 1-366, limits assumed)
- Sequence (Q92847 whole entry): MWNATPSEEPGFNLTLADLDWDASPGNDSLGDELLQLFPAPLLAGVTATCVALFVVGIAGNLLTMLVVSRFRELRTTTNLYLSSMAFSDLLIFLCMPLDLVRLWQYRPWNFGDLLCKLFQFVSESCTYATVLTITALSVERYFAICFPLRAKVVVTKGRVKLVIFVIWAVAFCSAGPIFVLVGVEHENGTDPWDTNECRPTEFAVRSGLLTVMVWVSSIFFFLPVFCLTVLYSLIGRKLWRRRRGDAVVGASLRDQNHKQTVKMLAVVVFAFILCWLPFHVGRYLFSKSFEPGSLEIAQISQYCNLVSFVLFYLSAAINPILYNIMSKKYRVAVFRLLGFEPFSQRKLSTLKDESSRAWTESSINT
- run description: cell-based or functional assay
Positions of bridges follow the written chain, without caps; N, C: chain ends. Non-standard residues stand in square brackets, D forms with d. Lys(N3) = [N-]=[N+]=NCCCC[C@H](N)C(=O)O; Pra = C#CC[C@H](N)C(=O)O
Recorded EC50 (M) of the MK0677 agonist, IP-One Gq assay, peptidomimetic at 10 µM, n = 2 by entry
Value expressed in M; do not type the unit.

{"columns": ["binder", "value reported"],
 "data": [
  ["H-RRRRFA[Pra]VKD[Lys(N3)]ILQLNLKEYNLV-OH (triazole 7-11) [SBL-GQ-14]", "1.01e-10"],
  ["H-RRRRRRRRFA[Pra]VKD[Lys(N3)]ILQLNLKEYNLV-OH (triazole 11-15) [SBL-GQ-15]", "1.07e-10"]
]}

Entry H-KKKFA[Pra]VKD[Lys(N3)]ILQLNLKEYNLV-OH (triazole 6-10) [SBL-GQ-13] , EC50 (M) of the MK0677 agonist, IP-One Gq assay, peptidomimetic at 10 µM, n = 2 reported as 1.01e-10

Please fill in: EC50 (M) of the MK0677 agonist, IP-One Gq assay, peptidomimetic at 10 µM, n = 2 reported for Ac-KKKFA[Pra]VKD[Lys(N3)]ILQLNLKEYNLV-OH (triazole 6-10) [SBL-GQ-05] = 1.53e-10
